# protocol.details: Binding affinity to wild type JAK2 JH1 catalytic domain (unknown origin) expressed in Sf9 cells and measured upto 30 mins by competitive fluorescence polarization assay
# Set-up: species or system Homo sapiens
readout.kind: Kd (µM)

query.smiles: Nc1nc(Oc2ccc(NC(=O)N[C@@H](CCc3ccccc3)C(=O)O)cc2)c2cc[nH]c2n1
readout.kind: Kd
observed.value: 36.1

====

# protocol.details: in vitro
# Parameters: dose or concentration left out as unconfirmed
# experimental.setup: PAMPA, pH 7.4
# Description: Permeability of compound in PBS buffer at pH 7.4 at 500 mM incubated for 18 hrs by UV plate reader based PAMPA assay
readout.kind: Papp at 18 h

query.smiles: O=C(N[C@H](CO)[C@H](O)c1ccc([N+](=O)[O-])cc1)C(Cl)Cl
readout.kind: Papp at 18 h
observed.value: 4.53 ×10⁻⁶ cm/s

====

# target.of.assay: Tyrosine-protein kinase JAK2 (Homo sapiens, UniProt O60674)
# Sequence (O60674 whole entry, the tested form may be a part): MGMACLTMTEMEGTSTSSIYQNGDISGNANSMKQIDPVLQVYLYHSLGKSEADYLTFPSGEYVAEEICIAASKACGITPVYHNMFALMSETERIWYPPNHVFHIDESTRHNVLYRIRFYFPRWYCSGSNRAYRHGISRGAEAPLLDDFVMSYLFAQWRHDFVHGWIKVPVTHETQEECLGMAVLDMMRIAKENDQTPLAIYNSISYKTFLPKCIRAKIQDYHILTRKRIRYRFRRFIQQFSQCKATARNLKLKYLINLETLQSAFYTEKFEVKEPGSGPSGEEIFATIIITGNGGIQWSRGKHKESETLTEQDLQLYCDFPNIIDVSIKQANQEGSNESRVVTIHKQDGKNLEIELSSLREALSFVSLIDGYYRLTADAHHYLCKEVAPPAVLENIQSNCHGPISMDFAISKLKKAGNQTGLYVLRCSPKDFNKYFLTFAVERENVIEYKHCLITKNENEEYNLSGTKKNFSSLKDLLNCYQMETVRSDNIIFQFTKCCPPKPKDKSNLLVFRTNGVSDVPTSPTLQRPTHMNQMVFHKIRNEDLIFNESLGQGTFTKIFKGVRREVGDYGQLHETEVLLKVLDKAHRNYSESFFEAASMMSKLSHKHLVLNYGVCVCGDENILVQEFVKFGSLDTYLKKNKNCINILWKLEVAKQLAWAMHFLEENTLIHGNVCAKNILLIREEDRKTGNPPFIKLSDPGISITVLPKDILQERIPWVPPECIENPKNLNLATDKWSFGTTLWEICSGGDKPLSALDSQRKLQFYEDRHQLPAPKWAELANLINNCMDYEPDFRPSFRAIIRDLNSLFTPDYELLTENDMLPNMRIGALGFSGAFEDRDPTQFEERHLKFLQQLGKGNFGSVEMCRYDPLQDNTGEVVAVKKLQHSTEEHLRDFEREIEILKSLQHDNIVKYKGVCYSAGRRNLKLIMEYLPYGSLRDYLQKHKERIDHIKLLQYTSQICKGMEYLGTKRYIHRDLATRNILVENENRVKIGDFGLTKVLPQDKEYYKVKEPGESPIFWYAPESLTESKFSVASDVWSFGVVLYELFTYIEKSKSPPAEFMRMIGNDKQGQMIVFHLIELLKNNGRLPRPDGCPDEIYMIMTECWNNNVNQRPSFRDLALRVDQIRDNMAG
# protocol.details: Binding affinity to wild type JAK2 JH2 pseudokinase domain (unknown origin) expressed in Sf9 cells at 50 uM and measured upto 30 mins competitive fluorescence polarization assay
Simple rule here: Activity less than 20% is fulfilled, otherwise not fulfilled.

query.smiles: Nc1nc(Oc2ccc(NC(=O)N[C@H](CCc3ccccc3)C(=O)O)cc2)c2cc[nH]c2n1
target.of.assay: Tyrosine-protein kinase JAK2 (Homo sapiens, UniProt O60674)
class.name: not fulfilled
//
query.smiles: Nc1nc(Oc2ccc(NC(=O)CCCC(=O)O)cc2)c2cc[nH]c2n1
target.of.assay: Tyrosine-protein kinase JAK2 (Homo sapiens, UniProt O60674)
class.name: not fulfilled
//
query.smiles: Nc1nc(-c2ccc(S(=O)(=O)CCC(=O)O)cc2)c2cc[nH]c2n1
target.of.assay: Tyrosine-protein kinase JAK2 (Homo sapiens, UniProt O60674)
class.name: fulfilled
//
query.smiles: Nc1nc(Oc2ccc(NC(=O)NCCC(=O)O)cc2)c2cc[nH]c2n1
target.of.assay: Tyrosine-protein kinase JAK2 (Homo sapiens, UniProt O60674)
class.name: not fulfilled
//
query.smiles: Nc1nc(Oc2ccc(NS(=O)(=O)CCC(=O)O)cc2)c2cc[nH]c2n1
target.of.assay: Tyrosine-protein kinase JAK2 (Homo sapiens, UniProt O60674)
class.name: fulfilled

====

# target.of.assay: Tyrosine-protein kinase JAK2 (Homo sapiens, UniProt O60674)
# protocol.details: Binding affinity to wild type JAK2 JH2 pseudokinase domain (unknown origin) expressed in Sf9 cells and measured upto 30 mins by competitive fluorescence polarization assay
pKd: −log10 of the molar value.
Outcome label depends on pKd relative to 6: at/above gives Y, below gives N.

query.smiles: Nc1nc(Oc2ccc(NC(=O)N[C@@H](CCc3ccccc3)C(=O)O)cc2)c2cc[nH]c2n1
target.of.assay: Tyrosine-protein kinase JAK2 (Homo sapiens, UniProt O60674)
class.name: Y
--
query.smiles: Nc1nc(Oc2ccc(NC(=O)N[C@@H](COCc3ccccc3)C(=O)O)cc2)c2cc[nH]c2n1
target.of.assay: Tyrosine-protein kinase JAK2 (Homo sapiens, UniProt O60674)
class.name: Y
--
query.smiles: Nc1nc(Oc2ccc(NC(=O)CCC(=O)O)cc2)c2cc[nH]c2n1
target.of.assay: Tyrosine-protein kinase JAK2 (Homo sapiens, UniProt O60674)
class.name: N
--
query.smiles: Nc1nc(Oc2ccc(NC(=O)N[C@@H](CCCc3ccccc3)C(=O)O)cc2)c2cc[nH]c2n1
target.of.assay: Tyrosine-protein kinase JAK2 (Homo sapiens, UniProt O60674)
class.name: Y
--
query.smiles: Nc1nc(Oc2ccc(NC(=O)N[C@H](Cc3ccccc3)C(=O)O)cc2)c2cc[nH]c2n1
target.of.assay: Tyrosine-protein kinase JAK2 (Homo sapiens, UniProt O60674)
class.name: N
--
query.smiles: Nc1nc(Oc2ccc(NC(=O)N[C@@H](Cc3ccccc3)C(=O)O)cc2)c2cc[nH]c2n1
target.of.assay: Tyrosine-protein kinase JAK2 (Homo sapiens, UniProt O60674)
class.name: N
